Attribution: the supplement of paper PMC12042874

assay: amyloid nucleation score (Sup35N fusion, yeast selection) (log enrichment); library NNK3; higher = more nucleation; inactive = no reads after selection;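 further: zero at mode of non-aggregating sequences after 7 days selection at 30°C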
ENDPOINT: amyloid nucleation score

| SUBSTANCE | RESULT |
| --- | --- |
| CLFFKHLLLGDDVLLLTYLR | inactive |
| VTSIPIPR | inactive |
| LNEYNINDFTLFSCTFIGNV | 2.73 |
| WGLLRYYE | 0.091 |
| RGKYFGCYLSVYSHL | inactive |
| IYSTVSYQGTVWRKYWQMNG | inactive |
| MTPTMDENSFLDSSISQMLW | inactive |
| YFSWLSLHVFVSGFVRIVCR | inactive |
| TVGVKKYAMGRRYIV | inactive |
| FVVELCVDPTFKLYD | inactive |
| NAFLIGTDILRFMRVLFKQL | inactive |
| SVMHKSRSRGFNRNDGSVRV | inactive |
| RNISDMEPS | inactive |
| AVITSRVRWSLRNRRANISM | inactive |
| SGRVTRWITSAMVARN | inactive |
| INLNYDLKFGYVYHMLFT | inactive |
| FYAYVSVDTVCSVAICLICT | inactive |
| HMKPSMLYITVCRWFKFY | inactive |
| DLTDNVFYWSRNTIDEVRVR | inactive |
| EFATLAEPDVIYYFLVFYCS | inactive |
| VFYIVMMLVRAPIFFNGVPT | inactive |
| RSCVCTTESPLSMTGLRRVV | inactive |
| HWCYRSFMTPAPPNLLPQPQ | inactive |
| CELVAQFPKFFAFYIFYDDT | inactive |
| GVHVVYCVRFSEGIVYTSGF | 0.906 |
| VIRPGQYVIWFSRVILSFLF | inactive |
| IYVGKRNSCRPSSEDSVGNR | 0.402 |
| CCNYFLNIIYVVQV | 3.14 |
| MYETVR | inactive |
| RSVVLIPDLFGNL | inactive |
| NSLCKLGFFSMVKYV | inactive |
| NFLLVPYLSPKLDMGGYHLW | inactive |
| VVGNSCVYPVGPRFAE | -0.454 |
| MIQIIMLEGGLSCLRHLVIT | -0.362 |
| VVQSYFIRREEFLLSCVQAG | inactive |
| CYEPVAGVFCMRIGLTVVGN | inactive |
